Entry source: PubChem BioAssay

# experimental target: L-lactate dehydrogenase (Plasmodium falciparum (isolate CDC / Honduras)) (UniProt Q27743)
# Sequence (Q27743 whole entry, looked up): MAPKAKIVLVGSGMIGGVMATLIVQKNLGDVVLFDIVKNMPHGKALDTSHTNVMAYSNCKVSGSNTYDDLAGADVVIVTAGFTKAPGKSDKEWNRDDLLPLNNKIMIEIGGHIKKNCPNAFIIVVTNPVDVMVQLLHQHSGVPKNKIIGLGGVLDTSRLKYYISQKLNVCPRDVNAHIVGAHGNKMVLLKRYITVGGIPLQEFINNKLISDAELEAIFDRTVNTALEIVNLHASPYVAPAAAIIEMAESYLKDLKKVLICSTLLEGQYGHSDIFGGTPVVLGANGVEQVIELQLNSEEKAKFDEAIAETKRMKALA
# experiment description: PfLDH activity inhibition – cell lysate, 3D7 strain, counter-screen for P. falciparum growth inhibition project (AID 2304);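 also: 0% = vehicle and 100% = reference inhibitor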
# experimental setup: P. falciparum 3D7 crude extract, LDH APAD/NBT absorbance; at 2 µM; stronger effect = higher value
outcome measure: inhibition (%)

INSERT INTO measurements (compound, outcome_measure, result_value) VALUES
  ('COc1cc2c(cc1C=CC(=O)N1CCN(Cc3nc4sc(C)c(C)c4c(=O)[nH]3)CC1)OC(C)C2 (stereo not given)', 'inhibition', -9),
  ('O=c1cc(NCCCNCc2ccc(Cl)c(Cl)c2)[nH]c2cc(F)cc(F)c12', 'inhibition', 0),
  ('COc1ccc(NC(=O)Nc2cccc(-c3cccc(-c4nc5ccccc5[nH]4)c3)c2)cc1', 'inhibition', 3),
  ('CC(=O)Oc1c(C2CCN(CCCCNC(=O)c3ccc(NC(=O)c4ccc(Cl)cc4)cc3)CC2)ccc2c1CCCC2', 'inhibition', 2),
  ('COc1cc(OC)cc(C(=O)Nc2cccc(-c3cn4ccc(C)cc4n3)c2)c1', 'inhibition', 0),
  ('Cn1nccc1C(=O)NCCNCc1ccc(-c2cccc(-c3nc4ccc(F)cc4[nH]3)c2)cc1', 'inhibition', -7),
  ('Cc1ccc(Nc2nccc(NCC(O)c3cccc(F)c3)n2)cc1 (stereo not given)', 'inhibition', -7),
  ('COc1cccc(C(=O)Nc2nonc2-c2ccc(OC)c(OC)c2)c1', 'inhibition', -8),
  ('COc1cccc(CCNc2nc(NCc3ccccc3)c3cc(OC)c(OC)cc3n2)c1', 'inhibition', -6),
  ('O=C(Nc1ccon1)c1cc(-c2cccnc2)nc2ccc(Br)cc12', 'inhibition', -3),
  ('COc1c(C2CCN(CCCCNC(=O)c3ccc(-c4ccc(NC(=O)C(F)(F)F)cc4)cc3)CC2)ccc2c1CCCC2', 'inhibition', 8),
  ('Clc1ccccc1CN1CCC(NCc2cccc(-n3ccnc3)c2)CC1', 'inhibition', -3),
  ('Cc1nc2nc(N)nc(N)c2c(C)c1Cc1ccc(C#N)cc1', 'inhibition', 1),
  ('CCC(CC)CN1C(=O)C(c2ccccc2)(c2ccccc2)N=C1N', 'inhibition', -3),
  ('CN1CCCC(CN2CCN(Cc3cccc(-c4ccc(-c5nc6ccc(C(F)(F)F)cc6[nH]5)cc4)c3)CC2)C1 (stereo not given)', 'inhibition', 5),
  ('CN1CCN(C(C(=O)NCc2cc(Cl)cc(Cl)c2)c2ccc(NC(=O)Nc3ccccc3)cc2)CC1 (stereo not given)', 'inhibition', -5),
  ('CC1(C)N=C(N)N=C(N)N1OCCCc1ccc(Cl)cc1Cl', 'inhibition', 0),
  ('COc1c(C=NNc2nc(Nc3ccccc3)nc(Nc3ccccc3)n2)ccc(Br)c1O', 'inhibition', 5),
  ('Cc1nc(N=C(N)N)nc2ccc(C(C)(C)C)cc12', 'inhibition', -1),
  ('CCN(CCCN1CCCCC1)c1cc(C)nc(Nc2ccc(Oc3ccccc3)cc2)n1', 'inhibition', -3);

====

# experiment description: antimalarial activity against Dd2 strain (AID 2302);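 also: 0% = DMSO untreated growth and 100% = chloroquine plus artemisinin killed control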
# experimental setup: P. falciparum Dd2 in RBCs, LDH growth readout, 72 h; at 2 µM
Calls of active or inactive are those of the source.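 How the source made its calls: active means growth inhibition above 50% at the single 2 µM test dose, taken to imply half-maximal potency below 2 µM; inactive means the rest.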
Outcomes: active, inactive

INSERT INTO results (compound, class_name) VALUES
  ('COc1cccc(OC)c1OCCCOc1c(C)nc(N)nc1N', 'inactive'),
  ('CC(C)c1ccc(CN2CCCCC(NC(=O)c3cc(-c4ccccc4F)cs3)C2)cc1 (stereo not given)', 'active'),
  ('Cc1cccc2[nH]c(-c3ccc(-c4cccc(CNC(C)C)c4)s3)nc12', 'active'),
  ('COc1ccc(NC(=O)N2CCc3ccc(OCCN(C(C)C)C(C)C)cc32)cc1C(F)(F)F', 'inactive'),
  ('CNC(=O)c1cnc(Nc2ccc(N3CCN(C)CC3)cc2)nc1Nc1ccccc1OC', 'active'),
  ('CCC(C)NCC(O)(c1ccc(Cl)cc1)c1ccc(Cl)cc1 (stereo not given)', 'active'),
  ('CCCCNC(=O)c1[nH]c2c(NC(=O)COc3ccccc3)cccc2c1-c1cccc(NC(=O)C(N)CO)c1 (stereo not given)', 'inactive'),
  ('Cc1ccccc1C1CCN(C2CCC(NC(=O)/C=C/c3cc(C(F)(F)F)ccc3F)CC2)CC1 (stereo not given)', 'inactive'),
  ('O=C(/C=C/c1ccc(F)c(Br)c1)NCCCCCN1CCC(c2c[nH]c3ccccc23)CC1', 'inactive'),
  ('COc1ccc(-c2ccc(NC(=O)c3cccc(Cl)c3)cc2)cc1CN(C)CCN(C)C', 'inactive');

====

# experiment description: inhibition of 3D7 malaria parasite growth – strain 3D7 (AID 2306);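 also: 0% = DMSO wells and 100% = chloroquine plus artemisinin control wells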
# experimental setup: P. falciparum 3D7 erythrocytic growth, LDH absorbance, 72 h; at 2 µM; stronger effect = higher value
outcome measure: growth inhibition (%)

INSERT INTO assay_data (compound, unit, result_value) VALUES
  ('FC(F)(F)c1cccc(Nc2nc3nonc3nc2NC2C3CC4CC(C3)CC2C4)c1 (stereo not given)', '%', 103),
  ('O=C(CSc1nccn1C1CCCC1)Nc1cc(C(F)(F)F)ccc1Cl', '%', 96),
  ('COCCNCC(O)Cn1c2ccc(Cl)cc2c2cc(Cl)ccc21 (stereo not given)', '%', 95),
  ('O=C(Nc1ccc(C(F)(F)F)cc1)NC1CCN(c2ccnc3ccccc23)CC1', '%', 103),
  ('CCOc1c(OC)ccc2c1CCN(CCN1CCC(NC(=O)c3ccc(-c4cccc(C(F)(F)F)c4C(F)(F)F)cc3)CC1)C2', '%', 102);

====

# experimental target: Calcium-dependent protein kinase 4 (Plasmodium falciparum (isolate 3D7)) (UniProt Q8IBS5)
# Sequence (Q8IBS5 whole entry, looked up): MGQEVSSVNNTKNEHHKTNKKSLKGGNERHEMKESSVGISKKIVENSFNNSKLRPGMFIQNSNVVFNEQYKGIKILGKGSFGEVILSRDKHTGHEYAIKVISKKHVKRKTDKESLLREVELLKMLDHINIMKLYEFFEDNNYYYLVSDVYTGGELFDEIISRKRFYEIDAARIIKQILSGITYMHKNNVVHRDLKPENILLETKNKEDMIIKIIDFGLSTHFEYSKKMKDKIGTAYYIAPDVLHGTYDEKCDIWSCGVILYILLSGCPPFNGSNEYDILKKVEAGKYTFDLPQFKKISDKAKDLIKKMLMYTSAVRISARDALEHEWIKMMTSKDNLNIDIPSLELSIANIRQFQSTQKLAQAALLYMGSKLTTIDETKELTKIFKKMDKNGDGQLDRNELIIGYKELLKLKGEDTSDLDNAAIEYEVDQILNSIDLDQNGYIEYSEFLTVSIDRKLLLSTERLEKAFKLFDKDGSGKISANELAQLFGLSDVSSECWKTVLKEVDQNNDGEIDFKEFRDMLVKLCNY
# experiment description: PfCDPK4 kinase inhibitors, biochemical, TCAMS library (AID 1159588)
# experimental setup: recombinant PfCDPK4, Kinase-Glo ATP depletion luminescence
Potency and affinity values are given separately. Active and inactive are the calls of the source. Cut-off not given; nearly all actives show IC50 up to about 0.91 µM.
outcome measure: outcome

INSERT INTO results (molecule, result_value) VALUES
  ('COc1cccc(-c2nn(C)c3sc(C(=O)Nc4cccnc4)cc23)c1', 'inactive'),
  ('CCc1c(C)nc(-n2nc(C)cc2NC(=O)C2c3ccccc3Oc3ccccc32)[nH]c1=O', 'inactive'),
  ('Cc1cc(N2CCNCC2)c2cc(NC(=O)Nc3ccc(Cl)c(Cl)c3)ccc2n1', 'inactive'),
  ('Cc1cccc2[nH]c(-c3cccc(-c4ccc(NC(=O)Nc5ccc(Cl)cc5)cc4)c3)nc12', 'inactive'),
  ('CN(Cc1cc(C(F)(F)F)cc(C(F)(F)F)c1)C(=O)C(Cc1ccc(F)cc1)C1CCCNC1 (stereo not given)', 'inactive');

====

# experimental target: Calcium-dependent protein kinase 1 (Plasmodium falciparum (isolate 3D7)) (UniProt P62344)
# Sequence (P62344 whole entry, looked up): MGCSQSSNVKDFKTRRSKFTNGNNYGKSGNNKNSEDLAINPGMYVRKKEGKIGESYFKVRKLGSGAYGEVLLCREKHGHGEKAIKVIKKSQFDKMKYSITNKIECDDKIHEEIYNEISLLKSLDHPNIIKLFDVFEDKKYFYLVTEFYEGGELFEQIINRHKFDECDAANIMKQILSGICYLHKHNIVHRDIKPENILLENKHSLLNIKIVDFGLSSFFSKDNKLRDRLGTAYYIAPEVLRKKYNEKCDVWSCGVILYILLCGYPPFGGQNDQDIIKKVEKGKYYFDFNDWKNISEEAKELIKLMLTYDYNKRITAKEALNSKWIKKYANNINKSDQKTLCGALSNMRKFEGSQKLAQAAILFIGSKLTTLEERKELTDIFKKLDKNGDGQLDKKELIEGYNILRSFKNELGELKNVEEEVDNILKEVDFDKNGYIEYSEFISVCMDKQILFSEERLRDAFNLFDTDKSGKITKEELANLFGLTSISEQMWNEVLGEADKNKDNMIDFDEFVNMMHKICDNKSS
# experiment description: PfCDPK1 kinase inhibitors, biochemical, TCAMS library (AID 1159585);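 also: inhibitors leave more ATP so luminescence rises with inhibition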
# experimental setup: recombinant PfCDPK1, Kinase-Glo ATP depletion luminescence
Potency and affinity values are given separately. Calls of active or inactive are those of the source. No cut-off is given here; in the data, nearly all actives have IC50 up to about 0.98 µM.
outcome measure: outcome

INSERT INTO results (compound, outcome_measure, result_value) VALUES
  ('COc1ccc(Nc2ncc3c(-c4cccc(NC(=O)CC(C)C)c4)c[nH]c3n2)cc1OC', 'outcome', 'inactive'),
  ('c1ccc2c(c1)CN(Cc1ccsc1)CC1(CCN(Cc3c[nH]c4cnccc34)CC1)O2', 'outcome', 'inactive'),
  ('Cc1cc2nc(-c3ccc(/C=C/C(=O)NCc4ccc(Cl)c(Cl)c4)cc3)[nH]c2cc1C', 'outcome', 'inactive'),
  ('CN1CCCC(CN2CCN(Cc3ccc(-c4cccc(-c5nc6ccc(F)cc6[nH]5)c4)cc3)CC2)C1 (stereo not given)', 'outcome', 'inactive'),
  ('NC(N)=NC(=O)Nc1cc(Br)c(Br)c(Br)c1', 'outcome', 'inactive'),
  ('NC(=O)c1cnc2cc(-c3ccoc3)ccc2c1Nc1ccc(NC(=O)Nc2ccccc2Cl)cc1', 'outcome', 'inactive'),
  ('Cc1cc(NC(=O)NCCN2CCC(NS(=O)(=O)c3ccc(C(F)(F)F)cc3)C2)c2ccccc2n1 (stereo not given)', 'outcome', 'inactive'),
  ('CC(=O)c1ccc(-c2ccc(C(=O)NCCCCN3CCC(c4ccc5c(c4O)CCCC5)CC3)cc2)cc1', 'outcome', 'inactive'),
  ('COc1cc(C(=O)Nc2ccc3nc(N4CCN(C)CC4)cc(C)c3c2)cc(OC)c1OC', 'outcome', 'inactive'),
  ('COc1ccc2nc(C)cc(Nc3ccc(Cl)cc3)c2c1', 'outcome', 'inactive'),
  ('N#CNC(=NCCCSc1csc(N=C(N)N)n1)NCCCCCCCCN=C(NC#N)NCCSCc1csc(N=C(N)N)n1', 'outcome', 'inactive'),
  ('O=C(/C=C/c1ccc(Cl)c(Cl)c1)NC1CCC(CN2CCC(c3nc4ncccc4[nH]3)CC2)CC1 (stereo not given)', 'outcome', 'inactive'),
  ('COc1cc2c(=O)c(Cc3ccc(Cl)cc3)c(C)[nH]c2cc1F', 'outcome', 'inactive'),
  ('Cc1cc(NN=Cc2ccccc2[N+](=O)[O-])c2cc(F)ccc2n1', 'outcome', 'inactive'),
  ('CCN1CCc2nc3ccccc3c(C(=O)Nc3ccc(C#N)cc3)c2C1', 'outcome', 'inactive'),
  ('COc1ccc(C(=O)Nc2ccc3nc(N4CCCCC4)cc(C)c3c2)cc1OC', 'outcome', 'inactive'),
  ('CC(NCC(O)Cn1c2ccccc2c2ccccc21)c1ccccc1 (stereo not given)', 'outcome', 'inactive'),
  ('Cc1ccc(Nc2nc(C)cc(NC3CCN(C)CC3)n2)cc1', 'outcome', 'inactive'),
  ('NC(=O)c1cccc(C(=O)Nc2cccc(-c3csc(-c4nc5ccccc5[nH]4)c3)c2)c1', 'outcome', 'inactive'),
  ('CC1(C)N=C(N)N=C(N)N1OCCSc1ccccc1', 'outcome', 'inactive');
